The compounds listed here are annotated with their pEC50.
Molecular target: human somatostatin receptor subtype 2 (Homo sapiens, UniProt P30874)
Construct: expressed in transfected cells
Sequence (P30874 whole entry): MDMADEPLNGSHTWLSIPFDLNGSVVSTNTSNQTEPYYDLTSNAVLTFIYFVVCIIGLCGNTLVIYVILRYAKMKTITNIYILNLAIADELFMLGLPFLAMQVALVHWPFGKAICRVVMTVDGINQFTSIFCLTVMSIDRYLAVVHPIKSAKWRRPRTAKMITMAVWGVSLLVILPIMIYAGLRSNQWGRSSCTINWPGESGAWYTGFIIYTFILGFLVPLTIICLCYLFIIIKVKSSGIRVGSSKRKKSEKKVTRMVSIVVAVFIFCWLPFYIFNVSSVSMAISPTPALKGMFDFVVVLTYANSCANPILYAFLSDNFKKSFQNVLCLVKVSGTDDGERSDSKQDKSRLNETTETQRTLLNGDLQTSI
Assay: Functional cAMP assay for SSTR2 agonists (HTRF) in CHO-K1 cells
Type: cell-based
Details: CHO-K1 cells stably expressing human SST2, 20 min; read-out: hSST2 cAMP Avg EC50
pEC50: −log10 of the molar value.
Endpoint Name: pEC50

{"Compound": "CCC(C)C(C(CC(=O)N1CCCC1C(OC)C(C)C(=O)NC(C)C(O)c1ccccc1)OC)N(C)C(=O)C(NC(=O)C(C(C)C)N(C)C(=O)OCc1ccc(NC(=O)[C@H](CCCNC(N)=O)NC(=O)[C@@H](NC(=O)CCOCCOCCOCCOCCC(=O)NCCNc2ncc(-c3cc(C)cc(F)c3)c(N3CCC(N)CC3)c2-c2nc3ccc(Cl)cc3[nH]2)C(C)C)cc1)C(C)C (stereo in doubt) [Compound 25]", "Tested System": "human somatostatin receptor subtype 2 (Homo sapiens, UniProt P30874)", "Endpoint Name": "pEC50", "Assay Value": 9.47}
{"Compound": "CC[C@H](C)[C@@H]([C@@H](CC(=O)N1CCC[C@H]1[C@H](OC)[C@@H](C)C(=O)N[C@H](C)[C@@H](O)c1ccccc1)OC)N(C)C(=O)[C@@H](NC(=O)[C@H](C(C)C)N(C)C(=O)OCc1ccc(NC(=O)[C@H](C)NC(=O)[C@@H](NC(=O)CCNCCC(=O)NCCNc2ncc(-c3cc(C)cc(F)c3)c(N3CCC(N)CC3)c2-c2nc3ccc(Cl)cc3[nH]2)C(C)C)c(O[C@@H]2O[C@H](C(=O)O)[C@@H](O)[C@H](O)[C@H]2O)c1)C(C)C [Compound 155]", "Tested System": "human somatostatin receptor subtype 2 (Homo sapiens, UniProt P30874)", "Endpoint Name": "pEC50", "Assay Value": 9.62}
{"Compound": "Cc1cc(F)cc(-c2cnc(NCCNC(=O)CCOCCC(=O)NCCNC(=O)c3c(C)[nH]c(/C=C4\\C(=O)Nc5ccc(F)cc54)c3C)c(-c3nc4ccc(Cl)cc4[nH]3)c2N2CCC(N)CC2)c1 [Compound 29]", "Tested System": "human somatostatin receptor subtype 2 (Homo sapiens, UniProt P30874)", "Endpoint Name": "pEC50", "Assay Value": 10.19}

====

The molecules listed here are annotated with their EC50.
Target: human somatostatin receptor subtype 2 (Homo sapiens, UniProt P30874)
Construct: expressed in transfected cells
Assay: Functional cAMP assay for SSTR2 agonists (HTRF) in CHO-K1 cells
Type: cell-based
Details: CHO-K1 cells stably expressing human SST2, 20 min; read-out: hSST2 cAMP Avg EC50

{"Molecule": "CC[C@H](C)[C@@H]([C@@H](CC(=O)N1CCC[C@H]1[C@H](OC)[C@@H](C)C(=O)N[C@H](C)[C@@H](O)c1ccccc1)OC)N(C)C(=O)[C@@H](NC(=O)[C@H](C(C)C)N(C)C(=O)OCc1ccc(NC(=O)[C@H](CCCNC(N)=O)NC(=O)[C@@H](NC(=O)[C@H](CS(=O)(=O)O)NC(=O)CCOCCC(=O)NCCNc2ncc(-c3cc(C)cc(F)c3)c(N3CCC(N)CC3)c2-c2nc3ccc(Cl)cc3[nH]2)C(C)C)cc1C(=O)NCCN)C(C)C [Compound 99]", "EC50 / nM": 0.19}
{"Molecule": "CC[C@H](C)[C@@H]([C@@H](CC(=O)N1CCC[C@H]1[C@H](OC)[C@@H](C)C(=O)N[C@H](C)[C@@H](O)c1ccccc1)OC)N(C)C(=O)[C@@H](NC(=O)[C@H](C(C)C)N(C)C(=O)OCc1ccc(NC(=O)[C@H](CCCNC(N)=O)NC(=O)[C@@H](NC(=O)[C@H](CS(=O)(=O)O)NC(=O)CCOCCOCCOCCOCCC(=O)NCCNc2ncc(-c3cc(C)cc(F)c3)c(N3CCC(N)CC3)c2-c2nc3ccc(Cl)cc3[nH]2)C(C)C)cc1C(=O)NCCN)C(C)C [Compound 100]", "EC50 / nM": 0.14}

====

Molecular target: SST2 (Homo sapiens, UniProt P30874)
Construct: host or cells: PathHunter CHO-K1 SST2 cells
Sequence (P30874 whole entry): as above
Assay: PathHunter CHO-K1 SST2 internalization assay
Type: cell-based
Settings: PathHunter CHO-K1 SST2, 90 min; read-out: Internalization EC50
Starred links: 1 amine or outer side, 2 acyl side, 3 side chain; linkers in the order of their positions; H or OH if unused. Non-standard residues stand in square brackets, D forms with d. Residues, ends and D or L forms follow the SMILES beside them. *: point of attachment. X1 = Cc1cc(F)cc(-c2cnc(NCCNC(=O)CCOCCC(=O)*)c(-c3nc4ccc(Cl)cc4[nH]3)c2N2CCC(N)CC2)c1; Dolaproine = CO[C@@H]([C@@H]1CCCN1)[C@@H](C)C(=O)O; Dil = CC[C@H](C)[C@H](NC)[C@@H](CC(=O)O)OC; PABC = O=C(OCc1ccc(N[*:1])cc1)[*:2]; X2 = C[C@@H](N*)[C@@H](O)c1ccccc1; Cit = NC(=O)NCCC[C@H](N)C(=O)O; NMeV = CN[C@H](C(=O)O)C(C)C
The compounds listed here are annotated with their EC50.
Endpoint Name: EC50 (µM)

{"Compound": "CC[C@H](C)[C@@H]([C@@H](CC(=O)N1CCC[C@H]1[C@H](OC)[C@@H](C)C(=O)N[C@H](C)[C@@H](O)c1ccccc1)OC)N(C)C(=O)[C@@H](NC(=O)[C@H](C(C)C)N(C)C(=O)OCc1ccc(NC(=O)[C@H](CCCNC(N)=O)NC(=O)[C@@H](NC(=O)[C@H](CC(=O)O)NC(=O)[C@H](CC(=O)O)NC(=O)[C@H](CC(=O)O)NC(=O)CCOCCC(=O)NCCNc2ncc(-c3cc(C)cc(F)c3)c(N3CCC(N)CC3)c2-c2nc3ccc(Cl)cc3[nH]2)C(C)C)cc1)C(C)C [Compound 108] (X1-DDDV[Cit][PABC][NMeV]V[Dil][Dolaproine]-X2)", "Assay Value": 0.053}
{"Compound": "CC[C@H](C)[C@@H]([C@@H](CC(=O)N1CCC[C@H]1[C@H](OC)[C@@H](C)C(=O)N[C@H](C)[C@@H](O)c1ccccc1)OC)N(C)C(=O)[C@@H](NC(=O)[C@H](C(C)C)N(C)C(=O)OCc1ccc(NC(=O)[C@H](C)NC(=O)[C@@H](NC(=O)CCOCCNCCNc2ncc(-c3cc(C)cc(F)c3)c(N3CCC(N)CC3)c2-c2nc3ccc(Cl)cc3[nH]2)C(C)C)cc1C(=O)NCCN)C(C)C", "Assay Value": 0.066}

====

Target: SST2 (Homo sapiens)
Construct: host or cells: PathHunter CHO-K1 SST2 cells
Experiment: PathHunter CHO-K1 SST2 internalization assay
Type: cell-based
Settings: PathHunter CHO-K1 SST2, 90 min; read-out: Internalization EC50
pEC50: −log10 of the molar value. Starred links: 1 amine or outer side, 2 acyl side, 3 side chain; linkers in the order of their positions; H or OH if unused. Non-standard residues stand in square brackets, D forms with d. Residues, ends and D or L forms follow the SMILES beside them. *: point of attachment. X4 = Cc1cc(F)cc(-c2cnc(NCCNC(=O)CCOCCOCCOCCOCCC(=O)*)c(-c3nc4ccc(Cl)cc4[nH]3)c2N2CCC(N)CC2)c1; Dolaproine = CO[C@@H]([C@@H]1CCCN1)[C@@H](C)C(=O)O; Dil = CC[C@H](C)[C@H](NC)[C@@H](CC(=O)O)OC; PABC = O=C(OCc1ccc(N[*:1])cc1)[*:2]; Cit = NC(=O)NCCC[C@H](N)C(=O)O; NMeV = CN[C@H](C(=O)O)C(C)C
The molecules listed here are annotated with their pEC50.

{"Molecule": "CC[C@H](C)[C@@H]([C@@H](CC(=O)N1CCC[C@H]1[C@H](OC)[C@@H](C)C(=O)N[C@H](C)[C@@H](O)c1ccccc1)OC)N(C)C(=O)[C@@H](NC(=O)[C@H](C(C)C)N(C)C(=O)OCc1ccc(NC(=O)[C@H](CCCNC(N)=O)NC(=O)[C@@H](NC(=O)CCOCCOCCOCCOCCNCCNc2ncc(-c3cc(C)cc(F)c3)c(N3CCC(N)CC3)c2-c2nc3ccc(Cl)cc3[nH]2)C(C)C)cc1)C(C)C", "Tested System": "SST2 (Homo sapiens)", "pEC50": 7.57}
{"Molecule": "CC[C@H](C)[C@@H]([C@@H](CC(=O)N1CCC[C@H]1[C@H](OC)[C@@H](C)C(=O)N[C@@H](Cc1ccccc1)C(=O)O)OC)N(C)C(=O)[C@@H](NC(=O)[C@H](C(C)C)N(C)C(=O)OCc1ccc(NC(=O)[C@H](CCCNC(N)=O)NC(=O)[C@@H](NC(=O)CCOCCOCCOCCOCCC(=O)NCCNc2ncc(-c3cc(C)cc(F)c3)c(N3CCC(N)CC3)c2-c2nc3ccc(Cl)cc3[nH]2)C(C)C)cc1)C(C)C [Compound 42] (X4-V[Cit][PABC][NMeV]V[Dil][Dolaproine]F-OH)", "Tested System": "SST2 (Homo sapiens)", "pEC50": 8.07}
{"Molecule": "CCC(C)C(C(CC(=O)N1CCCC1C(OC)C(C)C(=O)NC(C)C(O)c1ccccc1)OC)N(C)C(=O)C(NC(=O)C(C(C)C)N(C)C(=O)OCc1ccc(NC(=O)[C@H](CCCNC(N)=O)NC(=O)[C@@H](NC(=O)CCOCCOCCOCCOCCOCCOCCC(=O)NCCNc2ncc(-c3cc(C)cc(F)c3)c(N3CCC(N)CC3)c2-c2nc3ccc(Cl)cc3[nH]2)C(C)C)cc1)C(C)C (stereo in doubt)", "Tested System": "SST2 (Homo sapiens)", "pEC50": 7.58}

Source of measurements: patent US12134610B2
